Target: T1, biotinylated recombinant mouse IL-12Rβ2 (mouse, UniProt P97378 24-637, random biotinylated)
T1 construct: Recombinant protein produced in-house; also called mIL-12RB2; mouse IL-12RB2
T1 sequence: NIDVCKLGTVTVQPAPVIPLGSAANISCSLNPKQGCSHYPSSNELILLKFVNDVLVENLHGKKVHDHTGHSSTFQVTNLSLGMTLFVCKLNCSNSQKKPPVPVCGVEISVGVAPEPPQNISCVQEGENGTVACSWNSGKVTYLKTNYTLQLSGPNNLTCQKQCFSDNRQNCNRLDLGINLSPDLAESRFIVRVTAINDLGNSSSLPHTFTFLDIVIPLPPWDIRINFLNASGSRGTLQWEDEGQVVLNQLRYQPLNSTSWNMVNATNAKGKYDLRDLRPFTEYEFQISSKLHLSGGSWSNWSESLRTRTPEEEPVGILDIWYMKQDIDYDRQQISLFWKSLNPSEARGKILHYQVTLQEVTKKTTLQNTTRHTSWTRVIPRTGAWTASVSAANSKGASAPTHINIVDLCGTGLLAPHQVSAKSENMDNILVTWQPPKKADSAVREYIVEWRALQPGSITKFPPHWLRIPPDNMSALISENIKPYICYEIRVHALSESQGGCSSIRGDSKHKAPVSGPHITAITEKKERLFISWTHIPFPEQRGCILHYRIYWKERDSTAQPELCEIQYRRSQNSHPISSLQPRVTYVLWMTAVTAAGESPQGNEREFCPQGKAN
Experiment: ELISA, P.E., biotinylated antigen
For each entry below, report its ELISA mIL-12RB2/control value.

Here is how some binders turned out for ELISA mIL-12RB2/control.
anti-IL-12Rβ2 VHH clone 3CAHS171 (clone ID 20407) (VHH, not shown: small tags and cut ends, periplasmic extract) VHH: QVQLQESGGGLVQPGGSLRLTCVASGFPFSTHAMSWVRQPPGKGREWISAINSGGDSTDYADSVMGRFTISRDNAKNTVYLQMNSLKSEDTAAYYCAKYEDCSDYDCSSRASWGQGTQVTVSS    0.961
anti-IL-12Rβ2 VHH clone 3CAH32 (clone ID 20357) (VHH, not shown: small tags and cut ends, periplasmic extract) VHH: QVQLQESGGGLVQPGGSLRLSCAASGSILRINLMGWYRQVPGKQRELVAEMSTGGSTTYVDSVKGRFTISRDNAKNTVYLQMNSLKPEDTAVYYCNAKAWQLGRLENDDWGQGTQVTVSS    0.842
anti-IL-12Rβ2 VHH clone 3CRHS142 (clone ID 20434) (VHH, not shown: small tags and cut ends, periplasmic extract) VHH: QVQLQESGGGLVQAGGSLRLSCVSSQTLVGIEAMGWYRQAPGKQRELVALITLNGGTFYADSVKGRFTISRDVAEHMLYLEMNSLNPEDTAVYFCVAGVESDNEEPTYWGQGTQVTVSS    0.999

We next turn to a different binder, shown below.
Given anti-IL-12Rβ2 VHH clone 3CRH45 (clone ID 20383) (VHH, not shown: small tags and cut ends, periplasmic extract) VHH: QVQLQESGGGLVQPGGSLRLSCAASGFTFSTFGMHWFRQAPGKGLEWVSSIGIIDDNSYYASSVKGRFTISRDNAKNTLYLQMNSLKSEDTAVYYCSKDTTGSSRGQGTQVTVSS , state its recorded ELISA mIL-12RB2/control. 1.39
